system: phospho-PLCγ1 in Jurkat cells; assay: ITK target modulation PLC-γ assay (phospho-PLCγ1, αCD3-stimulated Jurkat cells); format: cell-based, human; details: Homo sapiens, 1 hour compound incubation, αCD3 Dynabeads stimulation 8 minutes, MSD phospho-PLCγ1, read-out: PLC-γ Inhibition IC50
This listing pairs compounds with measured IC50.

Example results:
structure string: C=CC(=O)Nc1cccc(-c2cnc3[nH]cc(-c4ccc(NC)nc4)c3c2)c1
result: 1 to 5 µM

structure string: C=CC(=O)N[C@H]1CCCN(c2cnc3[nH]cc(-c4ccncc4)c3c2)C1
result: > 5 µM

structure string: COc1cc(-c2c[nH]c3ncc(-c4cccc(/C=C(\C#N)C(N)=O)c4)cc23)ccn1
result: > 5 µM

structure string: C=CC(=O)Nc1cccc(-c2cnc3[nH]cc(-c4ccnc5[nH]ccc45)c3c2)c1
result: < 1 µM

structure string: C=CC(=O)Nc1cccc(-c2cnc3[nH]cc(-c4ccncn4)c3c2)c1
result: < 1 µM

structure string: C=CC(=O)Nc1cccc(-c2cnc3[nH]cc(-c4ccc(C(=O)Nc5ccc(C)cc5C)cc4)c3c2)c1
result: < 1 µM

For this compound ( C=CC(=O)Nc1cncc(-c2cnc3[nH]cc(-c4cn(C)c(=O)c5[nH]ccc45)c3c2)c1 ), measured IC50 is > 5 µM

The recorded IC50 for entry C=CC(=O)NC1CN(c2cnc3[nH]cc(-c4ccnc(C)c4)c3c2)C1 equals > 5 µM

Input C=CC(=O)Nc1cccc(-c2cnc3[nH]cc(-c4cc(C)ncn4)c3c2)c1 . Output IC50: 1 to 5 µM

For C=CC(=O)Nc1cccc(-c2cnc3[nH]cc(-c4cccnc4)c3c2)c1 the compound record lists IC50 as 1 to 5 µM

COc1cc(-c2c[nH]c3ncc(-c4cccc(NC(=O)/C=C/CN5CCOCC5)c4)cc23)ccn1 yielded IC50 of > 5 µM

====

Measured IC50, listed per entry for reference.
test system: phospho-PLCγ1 in Jurkat cells; assay: ITK target modulation PLC-γ assay (phospho-PLCγ1, αCD3-stimulated Jurkat cells); format: cell-based, human; conditions: Homo sapiens, 1 hour compound incubation, αCD3 Dynabeads stimulation 8 minutes, MSD phospho-PLCγ1, read-out: PLC-γ Inhibition IC50

Some entries whose results are on file:
structure string: C=CC(=O)Nc1cccc(-c2cnc3[nH]cc(-c4ccc(F)nc4)c3c2)c1
result: < 1 µM

structure string: CN(C)C/C=C/C(=O)Nc1cccc(-c2cnc3[nH]cc(-c4cccnc4)c3c2)c1
result: 1 to 5 µM

structure string: C=CC(=O)Nc1cccc(-c2cnc3[nH]cc(-c4cc(OC)ncn4)c3c2)c1
result: 1 to 5 µM

structure string: C=CC(=O)Nc1cc(C#N)cc(-c2cnc3[nH]cc(-c4ccncc4)c3c2)c1
result: > 5 µM

structure string: C=CC(=O)Nc1cc(-c2cnc3[nH]cc(-c4cccnc4)c3c2)cc(C(F)(F)F)c1
result: < 1 µM

structure string: C=CC(=O)Nc1cccc(-c2cnc3[nH]cc(-c4cc(NC)ncn4)c3c2)c1
result: 1 to 5 µM

structure string: COc1cc(-c2c[nH]c3ncc(-c4cccc(NC(=O)/C(C#N)=C/C(C)C)c4)cc23)ccn1
result: > 5 µM

structure string: C=CC(=O)Nc1cccc(-c2cnc3[nH]cc(-c4ccnc(NC)c4)c3c2)c1
result: < 1 µM

structure string: C=CC(=O)Nc1cccc(-c2cnc3[nH]cc(-c4ccc(=O)n(CC(C)(C)O)c4)c3c2)c1
result: 1 to 5 µM

structure string: C=CC(=O)Nc1cccc(-c2cnc3[nH]cc(-c4cccc(OC)c4)c3c2)c1
result: 1 to 5 µM

// field: IC50; key: C=CC(=O)Nc1cccc(-c2cnc3[nH]cc(-c4cn(CC5CC5)c(=O)c5[nH]ccc45)c3c2)c1 ; value = 1 to 5 µM

IC50 recorded for this compound, C=CC(=O)N[C@H]1CCN(c2cnc3[nH]cc(-c4ccncc4)c3c2)C1 , is > 5 µM

So for C=CC(=O)Nc1cc(-c2cnc3[nH]cc(-c4ccnc(OC)c4)c3c2)cc(-c2cnn(C)c2)c1 , the logged IC50 turned out to be < 1 µM

Input C=C(C)C(=O)Nc1cccc(-c2cnc3[nH]cc(-c4ccnc(OC)c4)c3c2)c1 . Output IC50: > 5 µM

Looking up C=C(C)C(=O)Nc1cc(-c2cnc3[nH]cc(-c4ccnc(OC)c4)c3c2)cc(-c2cnn(C)c2)n1 , I see its IC50 listed as > 5 µM

====

tested on: phospho-PLCγ1 in Jurkat cells; test: ITK target modulation PLC-γ assay (phospho-PLCγ1, αCD3-stimulated Jurkat cells); type: cell-based, human; settings: Homo sapiens, 1 hour compound incubation, αCD3 Dynabeads stimulation 8 minutes, MSD phospho-PLCγ1, read-out: PLC-γ Inhibition IC50
pIC50: −log10 of the molar value.
Reported pIC50 values are given for each entry in this list.

structure string: C=CC(=O)Nc1cc(-c2cnc3[nH]cc(-c4ccnc(OC)c4)c3c2)cc(OC(C)C)n1
result: 5.30 to 6.00

structure string: C=CC(=O)NC1CN(c2cnc3[nH]cc(-c4ccnc(F)c4)c3c2)C1
result: < 5.30

structure string: C=CC(=O)Nc1cccc(-c2cnc3[nH]cc(-c4cccc5cnccc45)c3c2)c1
result: < 5.30

structure string: CN(C)C/C=C/C(=O)Nc1cccc(-c2cnc3[nH]cc(-c4ccncc4)c3c2)c1
result: > 6.00

Quick note, pIC50 for CN(C)C/C=C/C(=O)Nc1cccc(-c2cnc3[nH]cc(-c4ccnc5[nH]ccc45)c3c2)c1 landed at > 6.00

# pIC50 of COc1cc(-c2c[nH]c3ncc(-c4cccc(NC(=O)/C=C/CN(C)C)c4)cc23)ccn1 = 5.30 to 6.00

====

Test system: phospho-PLCγ1 in Jurkat cells
Assay: ITK target modulation PLC-γ assay (phospho-PLCγ1, αCD3-stimulated Jurkat cells)
Assay type: cell-based, human
Conditions: Homo sapiens, 1 hour compound incubation, αCD3 Dynabeads stimulation 8 minutes, MSD phospho-PLCγ1, read-out: PLC-γ Inhibition IC50
Description: Jurkat cells, an immortalized human T-lymphocyte cell line, were maintained in RPMI media, 10% FBS, 1% pen/strep/glutamine (growth media). Cells were plated in growth media plus 50 μM β-mercaptoethanol at 400,000 cells per well of a 96 well plate. Compounds were serially diluted into DMSO, and then into media to concentrations 10× that of the final assay concentration. Compounds were then added to the cells with the final assay DMSO concentration being 0.1%. Cells were incubated for 1 hour at 37° C. […]
pIC50: −log10 of the molar value.
Recorded pIC50 by entry

compound: C=CC(=O)Nc1cc(-c2cnc3[nH]cc(-c4ccnc(OC)c4)c3c2)cc(N2CCOCC2)n1 [Example 41]
pIC50: > 6.00

Just so you know, measured pIC50 for C=CC(=O)NC1CN(c2cnc3[nH]cc(-c4ccnc(C#N)c4)c3c2)C1 [Example 5] came out at < 5.30

Briefly, pIC50 measured for C=CC(=O)NC1CN(c2cnc3[nH]cc(-c4ccccc4)c3c2)C1 [Example 1] : < 5.30

pIC50 measured on C=CC(=O)Nc1cccc(-c2cnc3[nH]cc(-c4cc(OC)ncc4C)c3c2)c1 [Example 79] = < 5.30

Form field pIC50, entry CN(C)C/C=C/C(=O)Nc1cccc(-c2cnc3[nH]cc(-c4ccc(=O)n(CC5CC5)c4)c3c2)c1 [Example 90] : < 5.30

Lab note: C=CC(=O)Nc1cccc(-c2cnc3[nH]cc(-c4ccnc(OC)c4)c3c2)c1 [Example 6] gave pIC50 of > 6.00

Value of measured pIC50 for the entry C=CC(=O)Nc1cccc(-c2cnc3[nH]cc(-c4cccc5ncccc45)c3c2)c1 [Example 54] : 5.30 to 6.00

Query C=CC(=O)Nc1cccc(-c2cnc3[nH]cc(-c4ccnc(C)c4)c3c2)c1 [Example 26] yields pIC50 of > 6.00

For this compound ( C=CC(=O)Nc1cccc(-c2cnc3[nH]cc(-c4ccnc(F)c4)c3c2)c1 [Example 25] ), measured pIC50 is > 6.00

# compound C=CC(=O)Nc1cccc(-c2cnc3[nH]cc(-c4cn(CC5CC5)c(=O)c5ccccc45)c3c2)c1 [Example 86] ; its pIC50 = < 5.30
